residual activity by entry:
- assayed-system: Serine/threonine-protein kinase SIK1 (Homo sapiens) (UniProt P57059)
- Sequence (P57059 whole entry): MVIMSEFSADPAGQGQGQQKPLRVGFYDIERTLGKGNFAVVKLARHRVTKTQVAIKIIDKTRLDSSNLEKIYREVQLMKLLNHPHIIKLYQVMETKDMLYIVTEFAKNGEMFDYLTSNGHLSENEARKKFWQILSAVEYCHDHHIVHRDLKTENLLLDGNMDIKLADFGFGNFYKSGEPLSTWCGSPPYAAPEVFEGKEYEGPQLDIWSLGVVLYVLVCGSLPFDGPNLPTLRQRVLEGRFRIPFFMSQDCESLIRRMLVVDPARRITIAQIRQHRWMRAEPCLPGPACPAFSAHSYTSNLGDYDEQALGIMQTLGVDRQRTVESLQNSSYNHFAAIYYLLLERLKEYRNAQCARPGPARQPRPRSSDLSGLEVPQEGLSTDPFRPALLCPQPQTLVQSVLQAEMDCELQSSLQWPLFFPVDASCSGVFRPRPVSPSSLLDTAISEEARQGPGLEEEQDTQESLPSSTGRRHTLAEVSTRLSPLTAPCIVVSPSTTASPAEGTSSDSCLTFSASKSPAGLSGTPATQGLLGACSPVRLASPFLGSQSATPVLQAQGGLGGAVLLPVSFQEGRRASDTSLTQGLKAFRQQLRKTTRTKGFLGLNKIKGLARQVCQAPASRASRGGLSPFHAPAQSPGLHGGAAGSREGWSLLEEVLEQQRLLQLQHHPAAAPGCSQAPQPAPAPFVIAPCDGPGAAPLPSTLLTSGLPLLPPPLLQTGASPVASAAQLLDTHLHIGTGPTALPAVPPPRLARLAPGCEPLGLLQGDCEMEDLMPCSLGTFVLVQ
- condition-details: at 1 µM
Please respond with the number in % and leave the unit unwritten.

Please review the following examples before continuing.
O=C1C(Cl)=C(N2C(=O)CCC2=O)C(=O)c2ccccc21    122
O=C1NC(=O)C(c2c[nH]c3ccccc23)=C1c1c[nH]c2ccccc12    81
Nc1n[nH]c2nc3ccccc3nc12    118
CC(C)(C)n1nc(Cc2cccc3ccccc23)c2c(N)ncnc21    72
Nc1nc(Nc2ccc(S(N)(=O)=O)cc2)nn1C(=O)c1c(F)cccc1F    50
CC(C)c1nn(-c2c(Cl)cccc2Cl)c2nc(Cc3ccc(OCCO)cc3)[nH]c(=O)c12    109
NCCNc1ncc(C(N)=O)c(Nc2cccc(C(F)(F)F)c2)n1    63
O=C(c1cc2cc(O)ccc2[nH]1)c1cc2cc(O)ccc2[nH]1    39

Enquiry: Indicate its recorded residual activity; the compound in question is NC(=O)Nc1sc(-c2ccc(F)cc2)cc1C(N)=O
Return: 28

Enquiry: Indicate its recorded residual activity; the compound in question is CCCC(=O)Oc1ccc2[nH]c(C(=O)c3cc4ccccc4[nH]3)cc2c1
Return: 83

Enquiry: Indicate its recorded residual activity; the compound in question is O=S(=O)(NCCNC/C=C/c1ccc(Br)cc1)c1cccc2cnccc12
Return: 137

Enquiry: Indicate its recorded residual activity; the compound in question is COc1cc2ncnc(Nc3cccc(Cl)c3)c2cc1OC
Return: 84

Enquiry: Indicate its recorded residual activity; the compound in question is Nc1ncnc2[nH]nc(Nc3ccc(F)cc3)c12
Return: 48

Enquiry: Indicate its recorded residual activity; the compound in question is CCCCc1c(-c2ccc(O)cc2)[nH]c2nccnc12
Return: 69

Enquiry: Indicate its recorded residual activity; the compound in question is O=c1cc(N2CCNCC2)oc2c(-c3ccccc3)cccc12
Return: 82

Enquiry: Indicate its recorded residual activity; the compound in question is O=c1c(-c2ccc(F)cc2)c(-c2ccncc2)[nH]n1-c1ccc(Cl)cc1
Return: 141

----------
- assayed-system: Ephrin type-B receptor 3 (Homo sapiens) (UniProt P54753)
- Sequence (P54753 whole entry): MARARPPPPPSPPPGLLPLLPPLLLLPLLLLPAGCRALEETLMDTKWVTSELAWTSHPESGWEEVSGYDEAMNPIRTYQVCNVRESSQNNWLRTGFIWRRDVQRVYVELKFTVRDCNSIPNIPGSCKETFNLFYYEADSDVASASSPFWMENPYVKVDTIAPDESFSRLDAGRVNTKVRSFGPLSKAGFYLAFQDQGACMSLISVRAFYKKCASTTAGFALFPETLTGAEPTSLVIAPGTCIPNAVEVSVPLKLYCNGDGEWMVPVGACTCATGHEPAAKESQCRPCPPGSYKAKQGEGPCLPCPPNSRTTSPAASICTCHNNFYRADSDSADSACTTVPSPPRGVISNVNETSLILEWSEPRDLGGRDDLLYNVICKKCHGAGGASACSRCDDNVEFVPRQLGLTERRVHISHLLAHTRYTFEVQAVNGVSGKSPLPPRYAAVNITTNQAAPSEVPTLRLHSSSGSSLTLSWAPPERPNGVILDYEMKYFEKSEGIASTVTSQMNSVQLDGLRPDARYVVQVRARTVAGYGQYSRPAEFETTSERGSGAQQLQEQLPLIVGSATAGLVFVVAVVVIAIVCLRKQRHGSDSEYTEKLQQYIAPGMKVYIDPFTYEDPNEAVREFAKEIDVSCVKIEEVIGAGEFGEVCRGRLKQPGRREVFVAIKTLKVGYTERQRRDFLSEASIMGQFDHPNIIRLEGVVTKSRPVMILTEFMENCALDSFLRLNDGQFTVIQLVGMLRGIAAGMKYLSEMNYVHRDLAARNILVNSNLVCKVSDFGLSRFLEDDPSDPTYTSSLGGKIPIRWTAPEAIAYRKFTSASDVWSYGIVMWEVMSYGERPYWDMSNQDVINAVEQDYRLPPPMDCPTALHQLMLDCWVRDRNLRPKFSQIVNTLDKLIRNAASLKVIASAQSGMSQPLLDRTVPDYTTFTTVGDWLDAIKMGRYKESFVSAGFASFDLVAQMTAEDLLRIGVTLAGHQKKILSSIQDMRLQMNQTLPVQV
- condition-details: at 1 µM
- Description: Millipore: Percentage of residual kinase activity of EPHB3 at 1uM relative to control. Control inhibitor: PP2 at 30.0uM. Buffer: 8 mM MOPS pH 7.0, 0.2 mM EDTA, 10 mM MnCl2
residual activity by entry:
Please respond with the number in % and leave the unit unwritten.

Please review the following examples before continuing.
CC(C)(C)n1nc(Cc2cccc3ccccc23)c2c(N)ncnc21    112
O=C(CCCc1ccc(-c2ccccc2F)cc1)Nc1ccc(O)cc1    109
O=C1NC(=O)C(c2cn(CCCO)c3ncccc23)=C1c1cnccn1    94
N#C/C(=C1/Nc2ccccc2S1)c1ccnc(NCCc2cccnc2)n1    141
O=C1NC(=O)c2c1c1c3ccccc3[nH]c1n1cncc21    121
CN(C)S(=O)(=O)c1ccc2c(c1)/C(=C/c1cc3c([nH]1)CCCC3)C(=O)N2    120
Nc1nc(Nc2ccc(S(N)(=O)=O)cc2)nn1C(=O)c1c(F)cccc1F    115
O=C(NC(NC(=S)Nc1ccc(F)c([N+](=O)[O-])c1)C(Cl)(Cl)Cl)C(c1ccccc1)c1ccccc1 (centres undefined)    104

We now examine a further compound.
Enquiry: Indicate its recorded residual activity; the compound in question is Oc1cccc(-c2nc(N3CCOCC3)c3oc4ncccc4c3n2)c1
Return: 116

----------
- assayed-system: Tyrosine-protein kinase JAK3 (Homo sapiens) (UniProt P52333)
- Sequence (P52333 whole entry): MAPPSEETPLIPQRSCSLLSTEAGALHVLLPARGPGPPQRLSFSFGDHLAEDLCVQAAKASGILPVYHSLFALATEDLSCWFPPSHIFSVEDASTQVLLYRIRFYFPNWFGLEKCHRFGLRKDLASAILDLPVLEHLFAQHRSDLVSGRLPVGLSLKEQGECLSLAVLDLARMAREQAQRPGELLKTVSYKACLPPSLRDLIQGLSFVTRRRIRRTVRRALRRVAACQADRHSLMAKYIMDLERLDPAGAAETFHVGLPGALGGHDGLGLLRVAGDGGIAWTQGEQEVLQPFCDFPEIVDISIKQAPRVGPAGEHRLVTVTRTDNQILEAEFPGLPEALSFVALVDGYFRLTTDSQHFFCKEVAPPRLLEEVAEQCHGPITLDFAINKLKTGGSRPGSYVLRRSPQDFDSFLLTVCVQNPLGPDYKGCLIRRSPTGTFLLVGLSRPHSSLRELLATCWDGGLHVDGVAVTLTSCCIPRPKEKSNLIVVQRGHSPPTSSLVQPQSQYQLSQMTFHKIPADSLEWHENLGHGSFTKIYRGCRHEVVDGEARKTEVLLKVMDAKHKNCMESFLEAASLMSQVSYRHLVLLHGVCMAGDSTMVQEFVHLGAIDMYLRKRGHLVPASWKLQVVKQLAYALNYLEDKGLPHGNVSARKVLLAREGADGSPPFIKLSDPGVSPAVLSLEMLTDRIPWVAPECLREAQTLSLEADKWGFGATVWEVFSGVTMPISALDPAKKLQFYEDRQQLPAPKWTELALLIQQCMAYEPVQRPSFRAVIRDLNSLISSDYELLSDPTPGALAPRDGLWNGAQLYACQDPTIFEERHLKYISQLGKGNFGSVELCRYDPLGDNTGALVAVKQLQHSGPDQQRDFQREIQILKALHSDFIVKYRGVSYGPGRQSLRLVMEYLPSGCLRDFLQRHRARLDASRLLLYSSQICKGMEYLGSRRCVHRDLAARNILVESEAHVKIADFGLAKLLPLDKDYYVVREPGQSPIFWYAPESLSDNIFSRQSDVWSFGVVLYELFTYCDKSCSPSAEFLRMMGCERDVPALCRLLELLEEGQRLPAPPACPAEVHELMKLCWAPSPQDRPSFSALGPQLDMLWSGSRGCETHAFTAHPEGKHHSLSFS
- condition-details: at 10 µM
Binary classification by residual activity, with 60% as an inclusive lower bound for YES; all other cases are NO.

// known answers, use as guide
Nc1ncnc2[nH]nc(Nc3ccc(F)cc3)c12    YES
Nc1ncnc2c1c(-c1ccc(Oc3ccccc3)cc1)cn2C1CCCC1    YES
O=C1NC(=O)C(c2cn(CCCn3ccnc3)c3ccccc23)=C1Nc1ccccc1    NO
O=c1cc(N2CCNCC2)oc2c(-c3ccccc3)cccc12    YES

Enquiry: Reported residual activity reaches at least 60% for O=C1NC(=O)c2c1c1c3ccccc3[nH]c1n1cncc21 ?
Return: NO

Enquiry: Reported residual activity reaches at least 60% for O=C1Cc2c([nH]c3ccc(Br)cc23)-c2ccccc2N1 ?
Return: YES

Enquiry: Reported residual activity reaches at least 60% for Cn1c2ccccc2c2c3c(c4c5ccccc5n(CCC#N)c4c21)CNC3=O ?
Return: NO

Enquiry: Reported residual activity reaches at least 60% for CC(C)(C)n1nc(Cc2cccc3ccccc23)c2c(N)ncnc21 ?
Return: YES

Enquiry: Reported residual activity reaches at least 60% for CCCCc1c(-c2ccc(O)cc2)[nH]c2nccnc12 ?
Return: NO

Enquiry: Reported residual activity reaches at least 60% for O=C1Nc2ccccc2/C1=C\c1c(Cl)[nH]c2ccccc12 ?
Return: YES

Enquiry: Reported residual activity reaches at least 60% for CC(C)c1nn(-c2c(Cl)cccc2Cl)c2nc(Cc3ccc(OCCO)cc3)[nH]c(=O)c12 ?
Return: YES

Enquiry: Reported residual activity reaches at least 60% for Nc1nccc(-c2c(-c3ccc(F)cc3)ncn2C2CCNCC2)n1 ?
Return: YES

Enquiry: Reported residual activity reaches at least 60% for CCN(CC)CCNC(=O)c1c(C)[nH]c(/C=C2\C(=O)Nc3ccc(Cl)cc32)c1C ?
Return: NO

Enquiry: Reported residual activity reaches at least 60% for COc1cc2ncnc(Nc3cccc(Cl)c3)c2cc1OC ?
Return: YES

----------
- assayed-system: Calcium/calmodulin-dependent protein kinase type II subunit beta (Homo sapiens) (UniProt Q13554)
- Sequence (Q13554 whole entry): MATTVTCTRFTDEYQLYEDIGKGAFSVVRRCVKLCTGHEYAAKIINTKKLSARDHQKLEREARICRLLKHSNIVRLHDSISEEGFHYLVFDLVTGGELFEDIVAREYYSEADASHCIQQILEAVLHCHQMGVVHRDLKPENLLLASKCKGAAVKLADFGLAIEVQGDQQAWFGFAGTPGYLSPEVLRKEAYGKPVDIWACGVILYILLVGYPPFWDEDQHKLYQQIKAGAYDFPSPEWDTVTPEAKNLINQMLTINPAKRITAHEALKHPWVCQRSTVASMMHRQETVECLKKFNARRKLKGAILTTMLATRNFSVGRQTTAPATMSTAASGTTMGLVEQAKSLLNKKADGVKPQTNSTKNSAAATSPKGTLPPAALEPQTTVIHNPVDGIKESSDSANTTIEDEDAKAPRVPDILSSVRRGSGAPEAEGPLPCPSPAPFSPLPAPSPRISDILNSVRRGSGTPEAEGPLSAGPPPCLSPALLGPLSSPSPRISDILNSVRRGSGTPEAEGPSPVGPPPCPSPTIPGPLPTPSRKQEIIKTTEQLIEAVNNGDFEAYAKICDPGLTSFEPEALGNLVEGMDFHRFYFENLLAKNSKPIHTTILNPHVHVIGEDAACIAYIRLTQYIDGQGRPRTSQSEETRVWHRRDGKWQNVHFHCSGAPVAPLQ
- condition-details: at 1 µM
measured-quantity: residual activity (%)
Please respond with the number in % and leave the unit unwritten.

O=C1NC(=O)c2c1c1c3ccccc3[nH]c1n1cncc21    22
Fc1ccc(-c2nc3n(c2-c2ccncc2)CCS3)cc1    100

We now examine a further molecule.
Enquiry: Indicate its recorded residual activity; the molecule in question is O=S(=O)(NCCNC/C=C/c1ccc(Br)cc1)c1cccc2cnccc12
Return: 76

----------
- assayed-system: Aurora kinase B (Homo sapiens) (UniProt Q96GD4)
- Sequence (Q96GD4 whole entry): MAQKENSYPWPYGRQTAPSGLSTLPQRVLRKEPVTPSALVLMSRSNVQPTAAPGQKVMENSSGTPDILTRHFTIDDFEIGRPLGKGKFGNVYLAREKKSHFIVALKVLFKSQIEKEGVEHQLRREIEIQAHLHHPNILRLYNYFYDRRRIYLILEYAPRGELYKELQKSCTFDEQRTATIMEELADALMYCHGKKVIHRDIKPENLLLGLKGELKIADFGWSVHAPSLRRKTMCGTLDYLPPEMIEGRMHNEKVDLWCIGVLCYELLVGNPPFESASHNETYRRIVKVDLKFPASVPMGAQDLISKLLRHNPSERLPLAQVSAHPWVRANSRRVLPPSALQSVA
- condition-details: at 1 µM
residual activity by entry:
Please respond with the number in % and leave the unit unwritten.

Please review the following examples before continuing.
O=C(c1cc2cc(O)ccc2[nH]1)c1cc2cc(O)ccc2[nH]1    9
O=c1cc(N2CCOCC2)oc2c1ccc1ccccc12    110
NCCNc1ncc(C(N)=O)c(Nc2cccc(C(F)(F)F)c2)n1    104
CCN(CC)CCNC(=O)c1c(C)[nH]c(/C=C2\C(=O)Nc3ccc(Cl)cc32)c1C    7
Cn1sc(=O)n(Cc2ccccc2)c1=O    88
COc1cc2ncnc(Nc3cccc(Cl)c3)c2cc1OC    64
CCCCc1c(-c2ccc(O)cc2)[nH]c2nccnc12    2

We now examine a further compound.
Enquiry: Indicate its recorded residual activity; the compound in question is CC(C)(C)n1nc(Cc2cccc3ccccc23)c2c(N)ncnc21
Return: 130

----------
residual activity by entry:
- assayed-system: Casein kinase II subunit alpha' (Homo sapiens) (UniProt P19784)
- Sequence (P19784 whole entry, looked up): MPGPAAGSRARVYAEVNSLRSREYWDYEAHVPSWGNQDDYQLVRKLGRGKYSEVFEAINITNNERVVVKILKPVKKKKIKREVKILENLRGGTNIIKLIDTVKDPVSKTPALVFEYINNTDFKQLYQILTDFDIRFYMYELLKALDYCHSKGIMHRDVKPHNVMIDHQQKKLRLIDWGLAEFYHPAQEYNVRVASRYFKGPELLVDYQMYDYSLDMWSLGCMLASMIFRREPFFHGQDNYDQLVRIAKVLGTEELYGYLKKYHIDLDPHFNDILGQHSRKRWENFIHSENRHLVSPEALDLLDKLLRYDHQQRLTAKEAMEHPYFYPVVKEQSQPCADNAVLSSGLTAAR
- condition-details: at 10 µM
Please respond with the number in % and leave the unit unwritten.

Please review the following examples before continuing.
CC(C)(C)n1nc(Cc2cccc3ccccc23)c2c(N)ncnc21    72
O=c1cc(N2CCOCC2)oc2c1ccc1ccccc12    5
Cn1c2ccccc2c2c3c(c4c5ccccc5n(CCC#N)c4c21)CNC3=O    96
O=c1cc(N2CCNCC2)oc2c(-c3ccccc3)cccc12    90
NC(=O)Nc1sc(-c2ccc(F)cc2)cc1C(N)=O    18
COc1ccc(COc2ccc(Cc3cnc(N)nc3N)cc2OC)cc1    74
O=C1C(Cl)=C(N2C(=O)CCC2=O)C(=O)c2ccccc21    98
N#C/C(=C1/Nc2ccccc2S1)c1ccnc(NCCc2cccnc2)n1    15
CCCC(=O)Oc1ccc2[nH]c(C(=O)c3cc4ccccc4[nH]3)cc2c1    98
CC(C)c1nn(-c2c(Cl)cccc2Cl)c2nc(Cc3ccc(OCCO)cc3)[nH]c(=O)c12    94

Enquiry: Indicate its recorded residual activity; the molecule in question is Nc1ncnc2c1cnn2-c1ccccc1
Return: 58

Enquiry: Indicate its recorded residual activity; the molecule in question is O=C(CCCc1ccc(-c2ccccc2F)cc1)Nc1ccc(O)cc1
Return: 102

Enquiry: Indicate its recorded residual activity; the molecule in question is COc1cc2nccc(Oc3ccc(NC(=S)NC(=O)c4ccccc4C)cc3)c2cc1OC
Return: 91

Enquiry: Indicate its recorded residual activity; the molecule in question is CC(C)(C)c1nc2c3ccc(F)cc3c3c(=O)[nH]ccc3c2[nH]1
Return: 34

Enquiry: Indicate its recorded residual activity; the molecule in question is CCN(CC)CCNC(=O)c1c(C)[nH]c(/C=C2\C(=O)Nc3ccc(Cl)cc32)c1C
Return: 47

Enquiry: Indicate its recorded residual activity; the molecule in question is O=C(c1cc2cc(O)ccc2[nH]1)c1cc2cc(O)ccc2[nH]1
Return: 72

Enquiry: Indicate its recorded residual activity; the molecule in question is N#C/C(=C\c1ccc(O)c(O)c1)C(=O)NCc1ccccc1
Return: 100
